# percent of cells in the positive quadrant listing for each entry below
molecular target: T1, human PD-1 expressed on cells (human, UniProt Q15116 25-288); assay: flow cytometry on activated hCD8 T cells from human blood, 2nd-hIgG-PE detection; 2nd-hIgG-PE alone 1.73
T1 construct: whole, on cells; also called hPD-1; 293 cell line stably expressing human PD-1
T1 sequence (Q15116 25-288): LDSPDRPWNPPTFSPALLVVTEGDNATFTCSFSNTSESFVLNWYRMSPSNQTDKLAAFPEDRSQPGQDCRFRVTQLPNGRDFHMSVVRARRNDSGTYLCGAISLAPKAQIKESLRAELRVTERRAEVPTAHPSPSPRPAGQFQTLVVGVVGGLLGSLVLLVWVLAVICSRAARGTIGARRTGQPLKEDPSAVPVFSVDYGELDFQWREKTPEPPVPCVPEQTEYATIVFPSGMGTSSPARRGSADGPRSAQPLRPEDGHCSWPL
Form entry: value (%) — number only.

Here is how some binders turned out for percent of cells in the positive quadrant.
humanized antibody 2B3W (antibody, V domains shown, Humanized antibody made in Expi293 cells) VH: EVQLVESGGGLVQPGGSLRLSCAASGFVFSNYDMSWVRQAPGKGLEWVAYITIGGGTTYYPDTVKGRFTISRDNAKNSLYLQMNSLRAEDTAVYYCARWVYDPLYAMDYWGQGTTVTVSS VL: DIVLTQTPLSLSVTPGQPASISCRASESVDNYGISFMNWFLQKPGQPPQLLIYAASNQGSGVPDRFSGSGSGTDFTLKISRVEAEDVGVYYCQQSKEVPWTFGQGTKVEIK | 9.77
T14-01 (antibody, V domains shown) VH: EVQLVESGGGLVQPGGSLRLSCAASGFVFSNYDMSWVRQAPGKGLEWVAYITIGGGTTYYPDTVKGRFTISRDNAKNSLYLQMNSLRAEDTAVYYCARWVYDPLYAMDYWGQGTTVTVSS VL: DIVLTQTPLSLSVTPGQPASISCRASESVTDYGISFMNWFLQKPGQPPQLLIYAASNQGSGVPDRFSGSGSGTDFTLKISRVEAEDVGVYYCQQSKEVPWTFGQGTKVEIK | 17.4
T15-05 (antibody, V domains shown) VH: EVQLVESGGGLVKPGGSLRLSCAASGFTFSSFGMSWVRQAPGKGLELVATIYHSRDYTYYPDSVKGRFTVSRDNAKNSLYLQMNSLRAEDTAVYYCARYYGNYGGYFDYWGQGTLVTVSS VL: AIQMTQSPSSLSASVGDRVTITCKASQSVSNDVAWYQQKPGKAPKLLIYYASNRYTGVPSRFSGSGSGTDFTLTISSLQPEDFATYYCQQDYSSPPTFGGGTKVEIK | 16.1

I have this binder here, 7C5-T15-01 (antibody, human IgG4, V domains shown) VH: EVQLVESGGGLVKPGGSLRLSCAASGFTFSSFGMSWVRQAPGKGLELVATIYSNGDYTYYPDSVKGRFTVSRDNAKNSLYLQMNSLRAEDTAVYYCARYYGNYGGYFDYWGQGTLVTVSS VL: AIQMTQSPSSLSASVGDRVTITCKASQSVWDDLTWYQQKPGKAPKLLIYYASNRYTGVPSRFSGSGSGTDFTLTISSLQPEDFATYYCQQDYSSPPTFGGGTKVEIK , and I need its recorded percent of cells in the positive quadrant.
20.3

Ok, now T14-03 (antibody, V domains shown) VH: EVQLVESGGGLVQPGGSLRLSCAASGFVFSNYDMSWVRQAPGKGLEWVAYITIGGGTTYYPDTVKGRFTISRDNAKNSLYLQMNSLRAEDTAVYYCARWVYDPLYAMDYWGQGTTVTVSS VL: DIVLTQTPLSLSVTPGQPASISCRASESVTDYGISFMNWFLQKPGQPPQLLIYAASNQGSGVPDRFSGSGSGTDFTLKISRVEAEDVGVYYCQQSEEVPWTFGQGTKVEIK
9.55
